Reference source for all entries: ChEMBL document CHEMBL3784937

// IC50 lookup, one value per entry
experimental details: Cytotoxicity against human BT20 cells assessed as growth inhibition after 48 hrs by CCK8 assay
Assay type: functional, cell-based
stated conditions: BT-20, 48 h

O=[N+]([O-])c1ccc([C@H]2Nc3cccnc3[C@H]3c4ccccc4C[C@H]32)cc1 (relative stereo) = > 100 µM
O=C1c2ccccc2-c2c1c(-c1ccc(F)cc1F)nc1cccnc21 = > 100 µM
c1ccc(-c2nc3cccnc3c3c2Cc2ccccc2-3)cc1 = > 100 µM

[ask] Look up IC50 of Fc1ccc([C@H]2Nc3cccnc3[C@H]3c4ccccc4C[C@H]32)c(F)c1 (relative stereo) and report it.
[reply] 86.4 µM

[ask] Dear colleague, please send me the reported IC50 for Fc1ccc(-c2nc3cccnc3c3c2Cc2ccccc2-3)cc1F when you can.
[reply] > 100 µM
